The origin of these recorded values is ChEMBL document CHEMBL1142431.

- test system: UniProtKB P21554
- Sequence (P21554 whole entry): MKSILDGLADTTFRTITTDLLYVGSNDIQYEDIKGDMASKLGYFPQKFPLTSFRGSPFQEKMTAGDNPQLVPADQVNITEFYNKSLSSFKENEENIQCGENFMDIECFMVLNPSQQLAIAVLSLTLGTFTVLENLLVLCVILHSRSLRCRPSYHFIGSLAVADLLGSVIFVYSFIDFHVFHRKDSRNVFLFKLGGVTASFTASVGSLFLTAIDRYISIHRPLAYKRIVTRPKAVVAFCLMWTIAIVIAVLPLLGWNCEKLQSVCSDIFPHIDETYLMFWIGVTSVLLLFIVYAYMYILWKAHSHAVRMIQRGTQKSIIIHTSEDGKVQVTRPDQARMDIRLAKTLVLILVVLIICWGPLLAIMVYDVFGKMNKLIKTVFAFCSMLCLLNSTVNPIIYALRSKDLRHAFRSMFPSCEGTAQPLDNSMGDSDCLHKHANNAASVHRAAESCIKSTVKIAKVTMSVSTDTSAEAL
For each of the compounds below, state its pKi.
Numbers only, as −log10 of the molar value.

Use these answered entries as a reference point.
{"compound": "O=C(c1ccc2c(c1)OC(c1ccccc1)(c1ccccc1)O2)N1CCCCC1", "test system": "UniProtKB P21554", "pKi": 7.55}
{"compound": "O=C(c1cc2c(cc1F)O[C@](c1ccc(F)cc1)(c1ccc(Cl)cc1Cl)O2)N1CCOCC1", "test system": "UniProtKB P21554", "pKi": 8.48}
{"compound": "O=S(=O)(c1cc2c(cc1F)OC(c1ccc(F)cc1F)(c1ccc(F)cc1F)O2)N1CCOCC1", "test system": "UniProtKB P21554", "pKi": 7.60}

With those in mind, consider the next compound.
Which pKi value belongs to O=S(=O)(c1cc2c(cc1F)OC(c1ccc(F)cc1)(c1ccc(Cl)cc1Cl)O2)N1CCOCC1 (stereo not given) ?
8.05
